Cited source: patent US20200392233A1

SYSTEM: T1, ALK7-Fc comprising protein
T1 construct: It is probably the human protein
T1 sequence (Q8NER5 22-113): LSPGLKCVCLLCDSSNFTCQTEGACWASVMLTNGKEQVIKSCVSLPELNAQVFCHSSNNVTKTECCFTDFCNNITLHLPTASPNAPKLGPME
ASSAY_SUMMARY: SPR (Biacore T100/T200) at 25 °C, antibody captured on FAB chip, ALK7-Fc analyte, 1:1 fit
The following binders are shown together with reported kon values.
Value expressed in M⁻¹ s⁻¹; do not type the unit.

{"columns": ["BINDER", "QUANTITY_NAME", "UNITS_TEXT", "NUMERIC_READOUT"],
 "data": [
  ["K02 (antibody, V domains shown, also called mAb K02; KO2) VH: QVQLVQSGAEVKKPGSSVKVSCKASGGTFSSSAIGWVRQAPGQGLEWMGGIWPIFGTALYAQKFQGRVTITADESTSTAYMELSSLRSEDTAVYYCARDPREYIHVFDIWGQGTMVTVSS VL: DIQMTQSPSSLSASVGDRVTITCRASQSISSYLNWYQQKPGKAPKLLIYGASSLQSGVPSRFSGSGSGTDFTLTISSLQPEDFATYYCQQAYSFPWTFGGGIKVEIK", "kon", "M⁻¹ s⁻¹", 23500],
  ["J02 (antibody, V domains shown, also called mAb J02; ALK7 mAb J02) VH: EVQLLESGGGLVQPGGSLRLSCAASGFTFSVYAMSWVRQAPGKGLEWVSAISGSGDSTVYADSVKGRFTISRDNSKNTLYLQMNSLRAEDTAVYYCAKPSYQPIYWGQGTLVTVSS VL: DIQMTQSPSSVSASVGDRVTITCRASQGISSWLAWYQQKPGKAPKLLIYAASSLQSGVPSRFSGSGSGTDFTLTISSLQPEDFATYYCQQAASYPLTFGGGTKVEIK", "kon", "M⁻¹ s⁻¹", 23600],
  ["L02 (antibody, V domains shown, also called mAb L02) VH: QVQLVQSGAEVKKPGASVKVSCKASGYTFAGYNMHWVRQAPGQGLEWVGIINPNSGWTNYAQKFQGRVTMTRDTSVSAAYMELSRLRSDDTAVYYCARDPVGARYEVFDYWGQGTLVTVSS VL: EIVMTQSPATLSVSPGERATLSCRASQSVSSALAWYQQKPGQAPRLLIYSAFTRASGIPARFSGSGSGTEFTLTISSLQSEDFAVYYCQQAWAFPLTFGGGTKVEIK", "kon", "M⁻¹ s⁻¹", 27400],
  ["G05 (antibody, V domains shown, also called mAb G05; ALK7 mAb G05) VH: QVQLVQSGAEVKKPGSSVKVSCKASGGTFSGQAISWVRQAPGQGLEWMGGIIPSFGTARYAQKFQGRVTITADESTSTAYMELSSLRSEDTAVYYCARTPYYDSSGYLDVWGQGTMVTVSS VL: DIQMTQSPSSLSASVGDRVTITCQASHDIDNYLNWYQQKPGKAPKLLIYYASNLKTGVPSRFSGSGSGTDFTFTISSLQPEDIATYYCQQSRASPPTFGGGTKVEIK", "kon", "M⁻¹ s⁻¹", 29900]
]}

Now let's try a different one.
Query :: Report kon for C03 (antibody, V domains shown, also called mAb C03; ALK7 mAb C03) VH: QLQLQESGPGLVKPSETLSLTCTVSGGSISSSAYYWAWIRQPPGKGLEWIGSIYLSGSTTYNPSLKSRVTISVDTSKNQFSLKLSSVTAADTAVYYCARDGRYQSRSPDYYYGMDVWGQGTTVTVSS VL: EIVLTQSPGTLSLSPGERATLSCKASQSVSSSYLAWYQQKPGQAPRLLIYGAFSRANGIPDRFSGSGSGTDFTLTISRLEPEDFAVYYCQQLVSYPFTFGGGTKVEIK please.
Result :: 38300
